# credit: ChEMBL document CHEMBL4706564

Could you please report measured IC50 for the items listed next?
Test system: Ebolavirus
Test: Antiviral activity against VSV-G pseudotyped EBOV infected in human HeLa cells
Type: functional, organism-based
Conditions: Orthoebolavirus
Please give a number only; it is taken to be in µM.

query: Requested field: IC50. Item: O=[N+]([O-])c1cc(S(=O)(=O)NCCN2CCOCC2)ccc1Sc1nnnn1-c1ccccc1
result: 1.9

query: Requested field: IC50. Item: N#Cc1c(NCCN)nc(-c2ccccc2)c2c1CCCC2
result: 24.4

----------
Experiment: Cytotoxicity against human HEK293T cells incubated for 48 hrs by MTT assay
Assay type: cell-based, HEK-293T
Settings: HEK293T cells
CC50 at 48 h strictly under 100 µM means fulfilled; at 100 µM or over means not fulfilled.

query: Please check: CC50 at 48 h for CCN1CCN(CC(=O)O[C@@H]2C[C@@H]3CC[C@@]2(C)C3(C)C)CC1 , strictly under 100 µM or not?
result: not fulfilled

query: Please check: CC50 at 48 h for CC1CCN(CC(=O)O[C@@H]2C[C@H]3CC[C@]2(C)C3(C)C)CC1 , strictly under 100 µM or not?
result: fulfilled

query: Please check: CC50 at 48 h for CCN(CC)CC(=O)O[C@@H]1C[C@@H]2CC[C@@]1(C)C2(C)C , strictly under 100 µM or not?
result: not fulfilled

query: Please check: CC50 at 48 h for CC1(C)[C@@H]2CC[C@@]1(C)[C@H](NC(=O)CCN1CCOCC1)C2 , strictly under 100 µM or not?
result: not fulfilled

query: Please check: CC50 at 48 h for CCOC(=O)N1CCN(CCC(=O)O[C@@H]2C[C@@H]3CC[C@@]2(C)C3(C)C)CC1 , strictly under 100 µM or not?
result: not fulfilled

query: Please check: CC50 at 48 h for CCN(CC)CCC(=O)O[C@@H]1C[C@@H]2CC[C@@]1(C)C2(C)C , strictly under 100 µM or not?
result: not fulfilled

query: Please check: CC50 at 48 h for CCOC(=O)N1CCN(CCCC(=O)O[C@@H]2C[C@@H]3CC[C@@]2(C)C3(C)C)CC1 , strictly under 100 µM or not?
result: fulfilled

query: Please check: CC50 at 48 h for CN1CCN(CCC(=O)N[C@@H]2C[C@H]3CC[C@]2(C)C3(C)C)CC1 , strictly under 100 µM or not?
result: not fulfilled

query: Please check: CC50 at 48 h for CC1CCN(CCC(=O)N[C@@H]2C[C@H]3CC[C@]2(C)C3(C)C)CC1 , strictly under 100 µM or not?
result: fulfilled

----------
Assay: Cytotoxicity against human HEK293T cells incubated for 48 hrs by MTT assay
Format: cell-based, HEK-293T
Settings: HEK293T cells
outcome-measure: CC50 at 48 h (µM)
Please give a number only; it is taken to be in µM.

query: Requested field: CC50 at 48 h. Item: CC1(C)[C@@H]2CC[C@@]1(C)[C@H](NC(=O)CCCN1CCOCC1)C2
result: 172

query: Requested field: CC50 at 48 h. Item: CC1(C)[C@H]2CC[C@]1(C)[C@H](OC(=O)CCCCN1CCCCC1)C2
result: 101

query: Requested field: CC50 at 48 h. Item: CN1CCN(CC(=O)O[C@@H]2C[C@@H]3CC[C@@]2(C)C3(C)C)CC1
result: 312

query: Requested field: CC50 at 48 h. Item: CN(C)CCCC(=O)O[C@@H]1C[C@@H]2CC[C@@]1(C)C2(C)C
result: 101

query: Requested field: CC50 at 48 h. Item: CN(C)CCC(=O)O[C@@H]1C[C@@H]2CC[C@@]1(C)C2(C)C
result: 505

query: Requested field: CC50 at 48 h. Item: CC1(C)[C@H]2CC[C@]1(C)[C@H](OC(=O)CCN1CCCCCC1)C2
result: 182

query: Requested field: CC50 at 48 h. Item: CC1CCN(CC(=O)O[C@@H]2C[C@@H]3CC[C@@]2(C)C3(C)C)CC1
result: 71.6

query: Requested field: CC50 at 48 h. Item: CC1(C)[C@H]2CC[C@]1(C)[C@H](OC(=O)CN1CCN(CCO)CC1)C2
result: 296

query: Requested field: CC50 at 48 h. Item: CC1(C)[C@H]2CC[C@]1(C)[C@H](OC(=O)CCCN1CCN(CCN)CC1)C2
result: 71.1

query: Requested field: CC50 at 48 h. Item: CCN(CC)CCCC(=O)O[C@@H]1C[C@@H]2CC[C@@]1(C)C2(C)C
result: 166

----------
Assay: in vitro
Details: human, HEK293T cells
selectivity ratio strictly under 40 means TRUE; at 40 or over means FALSE.

query: Please check: selectivity ratio for CC1CCN(CCC(=O)N[C@@H]2C[C@H]3CC[C@]2(C)C3(C)C)CC1 , strictly under 40 or not?
result: TRUE

query: Please check: selectivity ratio for CN1CCN(CC(=O)O[C@@H]2C[C@@H]3CC[C@@]2(C)C3(C)C)CC1 , strictly under 40 or not?
result: FALSE

query: Please check: selectivity ratio for CC1(C)[C@H]2CC[C@]1(C)[C@H](OC(=O)CN1CCN(Cc3ccccc3)CC1)C2 , strictly under 40 or not?
result: FALSE

query: Please check: selectivity ratio for CC1(C)[C@H]2CC[C@]1(C)[C@H](OC(=O)CCCCN1CCCCC1)C2 , strictly under 40 or not?
result: FALSE

query: Please check: selectivity ratio for CC1(C)[C@H]2CC[C@]1(C)[C@H](OC(=O)CCCN1CCN(CCO)CC1)C2 , strictly under 40 or not?
result: FALSE

query: Please check: selectivity ratio for CC1CCN(CC(=O)O[C@@H]2C[C@H]3CC[C@]2(C)C3(C)C)CC1 , strictly under 40 or not?
result: TRUE

query: Please check: selectivity ratio for CC1(C)[C@@H]2CC[C@@]1(C)[C@H](OC(=O)CN1CCCCC1)C2 , strictly under 40 or not?
result: TRUE

query: Please check: selectivity ratio for CN1CCN(CCCC(=O)N[C@@H]2C[C@H]3CC[C@]2(C)C3(C)C)CC1 , strictly under 40 or not?
result: FALSE

query: Please check: selectivity ratio for CC1(C)[C@H]2CC[C@]1(C)[C@H](OC(=O)CCCN1CCN(Cc3ccccc3)CC1)C2 , strictly under 40 or not?
result: FALSE
